# Tested on: PfAP2-G AP2 domain (GST-tagged)
# RUN DESCRIPTION: gcPBM binding intensity (ln(normalized median fluorescence intensity)); higher = stronger DNA binding
In all, about 25,000 sequences were measured (“ln(normalized median fluorescence intensity)”: median about 10, highest 2% from about 12 on). Only a selection was taken, and the highest values are over-represented in it overall.
QUANTITY: gcPBM binding intensity (ln)

query_sequence="TATATTTGTGCGTGTACACATTTGAAAAAATATATA [CACACA_site5079]" recorded_result=11.6
query_sequence="TTAAGTATTTTACGTACACACTTATAAATGTACAGG [CACACA_site6012]" recorded_result=11.7
query_sequence="CTACACACTTATAAATGTACAGGATTTAAGTATATG [XGTACX_site8245]" recorded_result=10.9
query_sequence="ATAAAATAAATATAACCACACACGAAAGAGAGAGAA [CACACA_site9075]" recorded_result=10.1
query_sequence="AATAAAAGTTCACCTGTACACACATATATATATGTA [CACACA_site8500]" recorded_result=11.3
query_sequence="TACTATGCCCCATATAAACACACAAATAAAAAGAAT [CACACA_site8857]" recorded_result=10.2
query_sequence="TATACATATAAATTGTGTACACATATATATATATTT [XGTACX_site7875]" recorded_result=11.6
query_sequence="AAAAAAAAAAAAAAAGGTACAGTAAAAAATTCCTCT [XGTACX_site5947]" recorded_result=11.7
query_sequence="ATATGTTCCGAAGGTTGTACACACATAGAAATATAC [XGTACX_site8227]" recorded_result=11.6
query_sequence="AAAAAAAAATAAAAAAGTACAGGTAAATATATATAT [XGTACX_site5812]" recorded_result=11.5
query_sequence="ATAAAAAAAAAAAAAAGTACACATATAAAAGTATTG [XGTACX_site8265]" recorded_result=11.6
query_sequence="AAAAAAGGTAAAAAAAGTACAAAAAAAAAATTAAAA [XGTACX_site6993]" recorded_result=11.3
query_sequence="TATAAAAATATATTTACACACTATAAATATCGAAAG [CACACA_site6896]" recorded_result=9.96
query_sequence="TTTTTTTTAAAACTATGTACGTAAAAATTGTAGTTT [XGTACX_site2302]" recorded_result=11.7
query_sequence="AGATATATATTTTATTGTACACATTAAAGTATAAAA [XGTACX_site7194]" recorded_result=11.5
query_sequence="AGTATACTCGGACACACACACACATATATATATATA [CACACA_site5031]" recorded_result=11.1
query_sequence="TGTTTATTTTTAAAAAGTACATATTTAAAAAACTTC [XGTACX_site271]" recorded_result=11.4
query_sequence="GGTGCACCCATATACACACACAAATACAATGATAAA [CACACA_site1132]" recorded_result=10.6
query_sequence="GTTGGGTAATTCGTAACACACATAAAATATATATAA [CACACA_site3986]" recorded_result=10.1
query_sequence="TATATATATATAACAACACACACAGATCATAAAACT [CACACA_site8670]" recorded_result=10.3
query_sequence="TTGTGAAATAAAATTTGTACACACATATATATATAT [XGTACX_site1078]" recorded_result=11.2
query_sequence="AAAAAAAAAAAAAAAAGTACACAAATAGATTTATAT [XGTACX_site3727]" recorded_result=11.6
query_sequence="AGATAAAAAAAGTACACACACACATATATATATATA [CACACA_site3072]" recorded_result=11.6
query_sequence="ATATAAAAATGTGTATGTACACACTTTATTTTTAAT [XGTACX_site5272]" recorded_result=11.4
query_sequence="ATAAGGAAGGGATGCACACAAAAGGGTACATAAGAA [CACACA_site4006]" recorded_result=11.4

###

# System: PfAP2-G AP2 domain (GST-tagged)
# RUN DESCRIPTION: gcPBM binding intensity (ln(normalized median fluorescence intensity)); higher = stronger DNA binding
The full ranking holds about 25,000 sequences; the median of “ln(normalized median fluorescence intensity)” is about 10, and the highest 2% start at about 12. The entries come from a sample that favours the highest values as a whole.
QUANTITY: gcPBM binding intensity (ln)

query_sequence="TATATGCACTTAATATGTACACAAAAAAAAAAAAAA [XGTACX_site6199]" tested_system="PfAP2-G AP2 domain (GST-tagged)" recorded_result=11.5
query_sequence="TTAAAATTATAATACGTACACACCTTATCTTTTTGG [CACACA_site278]" tested_system="PfAP2-G AP2 domain (GST-tagged)" recorded_result=11.5
query_sequence=TTATTTATTTATATAGTGCAATAAACACATAAATAG tested_system="PfAP2-G AP2 domain (GST-tagged)" recorded_result=10.1
query_sequence="TTCATTAATGTGTAATGTACTTGTAATATGGGATTA [XGTACX_site3903]" tested_system="PfAP2-G AP2 domain (GST-tagged)" recorded_result=11.1

###

Measured gcPBM binding intensity (ln), listed per entry.
# System: PfAP2-G AP2 domain (GST-tagged)
# RUN DESCRIPTION: gcPBM binding intensity (ln(normalized median fluorescence intensity)); higher = stronger DNA binding
Whole data set: some 25,000 sequences, median “ln(normalized median fluorescence intensity)” near 10, cut for the highest 2% near 12. Shown is part of a subset that was picked to be rich in the highest values.
QUANTITY: gcPBM binding intensity (ln)

query_sequence="AGAAAAAAAAAAAAATGTACAGACTTTTTCTTATAA [XGTACX_site6481]" quantity="gcPBM binding intensity (ln)" recorded_result=11
query_sequence="AAATTTATATATAGTTGTACAAAAATATGTTTCGTA [XGTACX_site4801]" quantity="gcPBM binding intensity (ln)" recorded_result=11.2
query_sequence="GCTATTTATTTATATTGTACTTTTTTTTTTTTTTTT [XGTACX_site3624]" quantity="gcPBM binding intensity (ln)" recorded_result=11.7
query_sequence="TATATATATATCAAGTGTACTTGTGTTTGTAATATT [XGTACX_site8854]" quantity="gcPBM binding intensity (ln)" recorded_result=11.4
query_sequence="TTTAAATTTTTATATTGTACTTTATTTATTTATTTA [XGTACX_site869]" quantity="gcPBM binding intensity (ln)" recorded_result=11.2

###

# Test system: PfAP2-G AP2 domain (GST-tagged)
# RUN DESCRIPTION: gcPBM binding intensity (ln(normalized median fluorescence intensity)); higher = stronger DNA binding
Whole data set: some 25,000 sequences, median “ln(normalized median fluorescence intensity)” near 10, cut for the highest 2% near 12. The sample as a whole holds a higher share of the highest values than the screen did.
QUANTITY: gcPBM binding intensity (ln)

query_sequence="AGCGTATTATACTGACGTACATTTTATGTAACTCCA [XGTACX_site2715]" tested_system="PfAP2-G AP2 domain (GST-tagged)" quantity="gcPBM binding intensity (ln)" recorded_result=11.4
query_sequence="AAACGATTAATGTGTACACACATAGTTATAAACATA [CACACA_site7073]" tested_system="PfAP2-G AP2 domain (GST-tagged)" quantity="gcPBM binding intensity (ln)" recorded_result=11.7
query_sequence="AAAAACGATTAATGTGTACACACATAGTTATAAACA [CACACA_site8659]" tested_system="PfAP2-G AP2 domain (GST-tagged)" quantity="gcPBM binding intensity (ln)" recorded_result=11.7
query_sequence="AAAAAATTCTGGTACTGTACACATTTTTTTAAATTT [XGTACX_site6904]" tested_system="PfAP2-G AP2 domain (GST-tagged)" quantity="gcPBM binding intensity (ln)" recorded_result=11.7
query_sequence="GACTTTTCATTTATAGTGCAAGTTTTTTTTTTTTTT [GTGCAC_site9698]" tested_system="PfAP2-G AP2 domain (GST-tagged)" quantity="gcPBM binding intensity (ln)" recorded_result=10.1

###

# Test system: PfAP2-G AP2 domain (GST-tagged)
# RUN DESCRIPTION: gcPBM binding intensity (ln(normalized median fluorescence intensity)); higher = stronger DNA binding
The full ranking holds about 25,000 sequences; the median of “ln(normalized median fluorescence intensity)” is about 10, and the highest 2% start at about 12. The sample holds the highest values, similar sequences and a random draw of the others, so the mix is not that of the screen.
QUANTITY: gcPBM binding intensity (ln)

query_sequence="ATGTATATATATATATGTACTAATTAGTAGTTTACG [XGTACX_site6272]" quantity="gcPBM binding intensity (ln)" recorded_result=11.1
query_sequence="ATTAAAGTTATAAATTCACACATGTAAATGTATTTA [CACACA_site5279]" quantity="gcPBM binding intensity (ln)" recorded_result=9.85
query_sequence="TACATAAACATTTATACACACATTATGTATACATAT [CACACA_site405]" quantity="gcPBM binding intensity (ln)" recorded_result=10
query_sequence="TCCTCTTTTATTTTTACACACGCGTAAACATATATA [CACACA_site667]" quantity="gcPBM binding intensity (ln)" recorded_result=10.5
query_sequence="AATAGCCCATATGGAATACACACTGAAAATAAAAAA [CACACA_site3373]" quantity="gcPBM binding intensity (ln)" recorded_result=10.3
query_sequence="GTTACATACCTATACACACACATATATAAATAAATA [CACACA_site6549]" quantity="gcPBM binding intensity (ln)" recorded_result=10.2
query_sequence="CCATGTCAAACATTTGCACACAAAAAAATAAAAATT [CACACA_site4546]" quantity="gcPBM binding intensity (ln)" recorded_result=10.2
query_sequence="AGTATAACTTTTGCGCGTACACACATTTATCCTCTT [XGTACX_site429]" quantity="gcPBM binding intensity (ln)" recorded_result=11.6
query_sequence="AAATTTAGTAAAAAATGTACGTAAAATGTAAAATAT [XGTACX_site1314]" quantity="gcPBM binding intensity (ln)" recorded_result=11.5
query_sequence="TTTCACACTATTTCATGTACACATAAAATTATATAT [XGTACX_site8692]" quantity="gcPBM binding intensity (ln)" recorded_result=11.4
query_sequence="TCATATATATATATATGTACATATTTATGTATGTAT [XGTACX_site6291]" quantity="gcPBM binding intensity (ln)" recorded_result=11.1
query_sequence="TCATATAAATACACGTGTACATATATATATTACAGT [XGTACX_site1954]" quantity="gcPBM binding intensity (ln)" recorded_result=11.5
query_sequence="AATAGTAAAAATCACTGTACGTTTATTTTTAAAATG [XGTACX_site1035]" quantity="gcPBM binding intensity (ln)" recorded_result=11.7
query_sequence="TTTTACTCTTAAAATAATAAAAAATATTCACATTTA [CACACA_negctrl_site1508]" quantity="gcPBM binding intensity (ln)" recorded_result=9.63
query_sequence="TCTTATTATAAAAGGAGTACATCAATTAGATGTTCC [XGTACX_site8465]" quantity="gcPBM binding intensity (ln)" recorded_result=11.6
query_sequence="TTTTTTTTTTTTTTTACACACATTTGAATAACTTTA [CACACA_site6810]" quantity="gcPBM binding intensity (ln)" recorded_result=9.75
query_sequence="TAATATTCAATTATACGTACACATATATATATATAT [XGTACX_site4245]" quantity="gcPBM binding intensity (ln)" recorded_result=11.8
query_sequence="TTTTTTTTCTCACAAAAAATAATTAACAAAAAGGAA [XGTACX_negctrl_site154]" quantity="gcPBM binding intensity (ln)" recorded_result=10.2
query_sequence="ATAACTTTTGCGCGTACACACATTTATCCTCTTTAT [CACACA_site209]" quantity="gcPBM binding intensity (ln)" recorded_result=11.7
query_sequence="TGATCTTTACACATATTATATATATATAAAAAAAAA [XGTACX_negctrl_site360]" quantity="gcPBM binding intensity (ln)" recorded_result=9.99
query_sequence="GTATAACTTTTGCGCGTACACACATTTATCCTCTTT [CACACA_site208]" quantity="gcPBM binding intensity (ln)" recorded_result=11.7
query_sequence="ATACATATATAAATACGTACATATATAATTATATAT [XGTACX_site8178]" quantity="gcPBM binding intensity (ln)" recorded_result=11.6
query_sequence="TGAATAAATAAGATACGTACACACATATACAAAATA [XGTACX_site7758]" quantity="gcPBM binding intensity (ln)" recorded_result=11.5
query_sequence="ATCTAAACCTTTTGAGCACACATATATATATATATA [CACACA_site8526]" quantity="gcPBM binding intensity (ln)" recorded_result=10.4
query_sequence="TTAAAAATGTTGGAAAGTACATATTTTTTAAAAGTA [XGTACX_site802]" quantity="gcPBM binding intensity (ln)" recorded_result=11.1
